ASSAY: Hepatocyte stability assay, mouse
Type: in vitro ADME
CONDITION_CONTEXT: mouse, hepatocytes, Hepatocyte stability Clint
PROPERTY_MEASURED: log10 of hepatocyte CLint at 10 μM (log10 of the value in µL/min/1e6 cells)
In our notation, the value equals log10 of hepatocyte CLint at 10 μM in µL/min/1e6 cells.

Recorded log10 of hepatocyte CLint at 10 μM of C=C(Cc1nc(C(F)(F)c2ccc(S(F)(F)(F)(F)F)cc2)no1)C(=O)O [Example 124] , please.
1.74

Also, C=C(Cc1noc(C(F)(F)c2ccc(Cl)cc2)n1)C(=O)O [Example 84] please.
1.92

Also, C=C(Cc1nc(C(C)(C)CCCCC)no1)C(=O)O [Example 12] please.
1.18

Another compound to look at: C=C(Cc1nc(C(F)(F)c2ccc(OC(F)(F)F)cc2)no1)C(=O)O [Example 94]
1.46

Similarly, C=C(Cc1nc(C2CCCCCCC2)no1)C(=O)O [Example 63] ?
1.36

And the next one, C=C(Cc1nc(Cc2ccc(OCCCC)cc2)no1)C(=O)O [Example 51] ?
2.44

Repeat with C=C(Cc1nc([C@H](C)CCCCCC)no1)C(=O)O [Example 40]
1.91

Same again, this time with C/C(=C\c1nc(C2(c3ccc(Br)cc3)CC2)no1)C(=O)O [Example 168]
2.59

What about this compound? C=C(Cc1nc(C2(c3ccc(S(F)(F)(F)(F)F)cc3)CC2)no1)C(=O)O [Example 77]
1.00

Another compound: C=C(Cc1nc(C2(c3ccc(C(F)(F)F)cc3)CC2)no1)C(=O)O [Example 22]
1.62

Queued: C=C(Cc1nc(CCCCCCC(C)(F)F)no1)C(=O)O [Example 31]
1.62

Item: C=C(Cc1nc(C(F)(F)c2ccc(C(F)(F)F)cc2)no1)C(=O)O [Example 92]
1.36

Continue with C=C(Cc1nc([C@@H](C)CCCCCC)no1)C(=O)O [Example 43]
2.15

Another compound to look at: C=C(Cc1nc(CCCCCCC(F)(F)C(F)(F)F)no1)C(=O)O [Example 17]
2.02

Could you do the same for C=C(Cc1nnc(CCCCCCCC)o1)C(=O)O [Example 2] , please?
1.87

Further, for C=C(Cc1nc(C2(c3ccc(OC)cc3)CC2)no1)C(=O)O [Example 45] ?
1.52

Try the compound C=C(Cc1nc(Cc2ccc(OC(F)(F)F)cc2)no1)C(=O)O [Example 46]
1.23

Could you do the same for C=C(Cc1nc(C(C)CCCCCC(F)(F)F)no1)C(=O)O (stereo not shown) [Example 54] , please?
1.11

Same lookup for C=C(Cc1nc(C(F)(F)c2ccc(Br)cc2)no1)C(=O)O [Example 90] , please.
1.53

What do you have for C=C(Cc1nc(C2(c3cccc(Cl)c3)CC2)no1)C(=O)O [Example 21] ?
1.79

Thanks! And C=C(Cc1noc(C2(c3ccc(Br)cc3)CC2)n1)C(=O)O [Example 89] ?
2.53

What about this compound? C=C(Cc1nc(CCCCCCCC)cs1)C(=O)O [Example 38]
2.31

What do you have for C=C(Cc1nc(CCCCCCCCC(F)(F)F)no1)C(=O)O [Example 60] ?
2.41

Okay, and C=C(C(=O)O)C(O)c1nc(CCCCCCCC)no1 (stereo not shown) [Example 108] ?
2.64

What about C=C(Cc1nc(Cc2ccc(CCCC)cc2)no1)C(=O)O [Example 20] ?
2.63

And what about the compound C=C(Cc1nc(C(F)(F)c2ccc(I)cc2)no1)C(=O)O [Example 120] ?
1.82

Also C=C(Cc1nc(-c2ccc(C(F)(F)CCC)cc2)no1)C(=O)O [Example 98] , if possible.
2.32

What would you report for C=C(Cc1nc(-c2cccc(CCCC)c2)no1)C(=O)O [Example 27] ?
2.45

Next: C=C(Cc1nc(C2(c3cc(Cl)cc(Cl)c3)CC2)no1)C(=O)O [Example 67]
1.96

And then C=C(Cc1nc(C2(c3ccc(C(F)(F)F)cc3)CC2)co1)C(=O)O [Example 103] , what is it?
1.97

// query: C=C(Cc1nc(C2CC3(C2)CC2(CCC2)C3)no1)C(=O)O [Example 62]
2.08

Now this one: C=C(Cc1nc(Cc2ccc(Cl)c(Cl)c2)no1)C(=O)O [Example 14]
1.26

----------
ASSAY: Hepatocyte stability assay, human
Assay type: in vitro ADME
CONDITION_CONTEXT: human, hepatocytes, Hepatocyte stability Clint
Classification by hepatocyte CLint at 10 μM follows these ranges: 1: < 30 µL/min/1e6 cells; 2: ≥ 30 µL/min/1e6 cells and < 70 µL/min/1e6 cells; 3: ≥ 70 µL/min/1e6 cells

Lab note: sort "C=C(Cc1nc(C(F)(F)CCCCCCC)no1)C(=O)O" into the matching hepatocyte CLint at 10 μM band.
3

And then "C=C(Cc1nc(CCCCCCCC)c(C)o1)C(=O)O" , what is it?
3

And for "C=C(Cc1cc(CCCCCCCC)on1)C(=O)O" ?
3

# repeat for "C=C(Cc1nc(CCCCCCCCCCC)no1)C(=O)O"
3

And "C=C(Cc1nc(-c2ccc(CCCC)cc2)no1)C(=O)O" ?
3

For "C=C(Cc1cnc(CCCCCCCC)cn1)C(=O)O" then?
3

// next record "C=C(Cc1nc(C2(c3cc(Cl)c(F)c(Cl)c3)CC2)no1)C(=O)O"
3

Can you check "C=C(Cc1nc(-c2ccc(OCCCC)c(F)c2)no1)C(=O)O" next?
2

Record: "C=C(Cc1nc(CCCCCCCC)no1)C(=O)O"
3

Input "C=C(Cc1nc(C2(c3ccc(I)cc3)CC2)no1)C(=O)O"
2

// next record "C=C(Cc1nc(C2(c3ccc(C(F)(F)F)c(Cl)c3)CC2)no1)C(=O)O"
2

And then "C=C(Cc1nc(-c2ccc(Cl)cc2)no1)C(=O)O" , what is it?
1

Further, for "C=C(Cc1nc(C2(c3ccc(C4CCCC4)cc3)CC2)no1)C(=O)O" ?
1

Again, but for "C=C(Cc1nc(C(F)(F)c2ccc(I)cc2)no1)C(=O)O"
1

And the next one, C=C(Cc1ccccc1Cl)C(=O)O [2-(2-chlorobenzyl)acrylic acid, reference compound] ?
1

Likewise for "C=C(Cc1nc(-c2ccc(OCCCC(F)(F)F)cc2)no1)C(=O)O" ?
2

Try "C=C(Cc1nc(C2(c3cccc(Cl)c3)CC2)no1)C(=O)O" next.
1

Can you check "C=C(Cc1nc(C2(c3ccc(F)cc3)CC2)no1)C(=O)O" next?
1

Now consider "C=C(Cc1nc(C(F)(F)c2ccc(Br)cc2)no1)C(=O)O" and answer again.
1

----------
Hi there, I'd appreciate the recorded pEC50 for every entry that follows.
System: NRF2 (nuclear factor erythroid 2-related factor 2)
ASSAY: NRF2 +/-GSH activation assay (DiscoverX PathHunter NRF2 translocation kit, U2OS cells)
Type: cell-based
CONDITION_CONTEXT: −GSH; Table 5 exo vs endo comparison; read-out: −GSH EC50
On this scale, pEC50 is minus log10 of a concentration expressed in M (mol/L).

Return reported pEC50; argument: "C=C(Cc1nc(C2(c3ccc(Br)cc3)CC2)no1)C(=O)O"
4.44

Further, for "C/C(=C\c1nc(C2(c3ccc(SC(F)(F)F)cc3)CC2)no1)C(=O)O" ?
4.41

Proceed to "C/C(=C\c1nc(C2(c3ccc(Br)cc3)CC2)no1)C(=O)O"
5.85

Same again, this time with "C=C(Cc1nc(-c2ccc(OCCCC)cc2)no1)C(=O)O"
5.49

Try the molecule "C=C(Cc1nc(C2(c3ccc(SC(F)(F)F)cc3)CC2)no1)C(=O)O"
4.74

Query "C=C(Cc1nc(C2(c3ccc(S(F)(F)(F)(F)F)cc3)CC2)no1)C(=O)O" next
4.32

----------
ASSAY: Hepatocyte stability assay, mouse
Format: in vitro ADME
CONDITION_CONTEXT: mouse, hepatocytes, Hepatocyte stability Clint
Give 1 (yes) when the value for hepatocyte CLint at 10 μM is at least 90 µL/min/1e6 cells. Give 0 (no) when it is less.

Tell me whether hepatocyte CLint at 10 μM is at least 90 µL/min/1e6 cells here: "C=C(Cc1nc(-c2ccc(OCCCC)cc2)no1)C(=O)O"
1 (yes)

Let us now turn to "C=C(Cc1nc(CCCCCCCC)no1)C(=O)O"
1 (yes)

"C=C(Cc1nc(Cc2ccc(Cl)cc2)no1)C(=O)O" ?
0 (no)

// same read-out, input: "C=C(Cc1nc(Cc2cc(Cl)cc(Cl)c2)no1)C(=O)O"
0 (no)

Now give it for "C=C(Cc1nc(C2(c3ccc(C4CCC4)cc3)CC2)no1)C(=O)O" too.
1 (yes)

Okay, and "C=C(Cc1nc(Cc2ccc(CCC)cc2)no1)C(=O)O" ?
0 (no)

Similarly, "C=C(Cc1noc(C(F)(F)c2ccc(Br)cc2)n1)C(=O)O" ?
1 (yes)

Could you do the same for "C=C(Cc1nc(-c2ccc(C(F)(F)CCCC)cc2)no1)C(=O)O" , please?
1 (yes)

Also "C=C(Cc1nc(C2(c3ccc(OC(F)(F)F)cc3)CC2)no1)C(=O)O" ?
0 (no)

"C=C(Cc1nc(C2(c3ccc(C4CCCC4)cc3)CC2)no1)C(=O)O" ?
0 (no)

Do the same for "C=C(Cc1nc(C2(c3ccc(C(F)(F)F)c(Cl)c3)CC2)no1)C(=O)O" please
0 (no)

Check "C=C(Cc1nc(-c2ccc(OCCCC(F)(F)F)cc2)no1)C(=O)O" too.
1 (yes)

Follow-up item: "C=C(Cc1nc(Cc2ccc(OC(F)(F)C(F)F)cc2)no1)C(=O)O"
1 (yes)

Entry "C=C(Cc1nc(Cc2ccc3ccccc3c2)no1)C(=O)O" please
0 (no)

Check "C=C(Cc1nc(C2(c3ccc(Br)cc3)CC2)no1)C(=O)O" too.
1 (yes)

Also "C=C(Cc1ccc(CCCCCCCC)nn1)C(=O)O" , if possible.
1 (yes)

Now consider "C=C(Cc1cnc(CCCCCCCC)cn1)C(=O)O" .
1 (yes)

Param item: "C=C(Cc1nc(C2(c3ccc(Cl)cc3)CC2)no1)C(=O)O"
1 (yes)

Can you handle C=C(C(=O)O)C(OC)c1nc(CCCCCCCC)no1 (centres unmarked) next?
1 (yes)

And then "C=C(Cc1nc(CCc2ccc(CCC)cc2)no1)C(=O)O" , what is it?
1 (yes)
